Values were extracted from ChEMBL document CHEMBL1201862.

system: NCI-H460; assay: NCI tumour cell line growth inhibition, 48 h
Active and inactive are the calls of the source. Rule as the data show it: active = GI50 up to about 1.1 µM and inactive = higher.
Parameter call: string, one of t for active, f for inactive

Here's what some known entries look like.
| compound | category label |
| --- | --- |
| COc1ncc(C=C(C#N)C#N)c(OC)n1 | f |
| CCCCCc1nnc(NS(=O)(=O)c2ccc(NC(=O)OCC(C)C)cc2)s1 | f |
| CCCCCCc1ccc(C(=O)NO)cc1 | f |
| C/C(=N/N)c1sc(-c2nc(C)c(/C(C)=N\N)s2)nc1C | f |
| COc1nc2c(nc(N)n2C2OC(CO)C(O)C(O)C2O)c(=O)[nH]1 (centres undefined) | f |

Request: Short answer needed: outcome of this test for `COc1ccccc1/C=N/C12CC3CC(CC(C3)C1)C2` ?
Result: f

Request: Short answer needed: outcome of this test for `COC(=O)c1ccc2c(c1)S/C(=C/c1ccc3ccc4cccc5ccc1c3c45)S2` ?
Result: f
